Target: Human recombinant FAP (Homo sapiens)
Sequence (Q12884 1-760): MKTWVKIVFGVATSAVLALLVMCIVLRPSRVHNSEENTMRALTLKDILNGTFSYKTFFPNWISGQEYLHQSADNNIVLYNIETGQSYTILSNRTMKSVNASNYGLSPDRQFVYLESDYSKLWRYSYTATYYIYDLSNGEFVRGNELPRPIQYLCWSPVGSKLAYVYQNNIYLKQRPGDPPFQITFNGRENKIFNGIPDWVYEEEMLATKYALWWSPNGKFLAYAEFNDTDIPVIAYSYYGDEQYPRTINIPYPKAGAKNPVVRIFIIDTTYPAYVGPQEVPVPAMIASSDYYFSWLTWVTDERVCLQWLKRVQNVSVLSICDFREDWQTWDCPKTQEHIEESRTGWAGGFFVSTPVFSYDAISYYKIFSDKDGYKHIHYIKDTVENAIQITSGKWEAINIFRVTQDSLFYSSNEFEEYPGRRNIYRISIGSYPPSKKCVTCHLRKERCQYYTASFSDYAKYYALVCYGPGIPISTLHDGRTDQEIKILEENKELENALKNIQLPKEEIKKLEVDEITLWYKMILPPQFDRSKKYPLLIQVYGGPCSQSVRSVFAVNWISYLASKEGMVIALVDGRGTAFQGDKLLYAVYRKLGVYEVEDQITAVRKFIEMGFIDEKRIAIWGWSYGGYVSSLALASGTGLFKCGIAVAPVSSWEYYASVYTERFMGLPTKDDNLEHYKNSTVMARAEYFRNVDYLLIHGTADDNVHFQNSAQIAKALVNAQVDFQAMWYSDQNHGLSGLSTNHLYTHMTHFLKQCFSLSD
Test: Surface plasmon resonance assay (Biacore T200, single cycle kinetics)
Type: binding
Settings: SPR, half-life, 25°C
assayEndpoint: HL [min] (Biacore)

Below are worked cases with known answers.
Req: Value lookup for HL [min] (Biacore); key = O=C(O)CN1CCN(CC(=O)O)CCN(CC(=O)N2CCN(CCNC(=O)c3ccc(-c4ccc5c(C(=O)NCC(=O)N6CCC[C@H]6C(=O)c6nc7ccccc7o6)ccnc5c4)cc3)CC2)CCN(CC(=O)O)CC1 [drawing 355]
Resp: >500 min

Req: // HL [min] (Biacore) lookup, key: O=C(O)CN1CCN(CC(=O)O)CCN(CC(=O)N2CCN(CCCOc3ccc4nccc(C(=O)NCC(=O)N5CC(F)(F)C[C@H]5C(=O)c5nc6ccccc6o5)c4c3)CC2)CCN(CC(=O)O)CC1
Resp: 57 min

Here is the next item to consider.
Req: Field request: HL [min] (Biacore) | item: O=C(O)CN1CCN(CC(=O)O)CCN(CC(=O)N2CCN(CCCOc3ccc4nccc(C(=O)NCC(=O)N5CCC[C@H]5C(=O)c5nc6ccccc6o5)c4c3)CC2)CCN(CC(=O)O)CC1 [drawing 357]
Resp: >500 min

====

biological target: FAP-expressing human WI-38 fibroblasts (Homo sapiens); construct: FAP-expressing human WI-38 fibroblasts (ECACC 90020107) were cultured in EMEM; host or cells: WI-38 human fibroblasts; assay: Competitive FACS binding assay (displacement of Cy5-labeled FAP inhibitor 3BP-2935); details: 3 nM Cy5-labeled 3BP-2935, 4°C, 1 hour
// label = Yes if pIC50 (FACS) is not less than 8, otherwise No

These recorded examples may help you get a feel for the data.
Req: Threshold query (pIC50 (FACS) >= 8) on N#C[C@@H]1CC(F)(F)CN1C(=O)CNC(=O)c1ccnc2ccc(-c3ccc(C(=O)NCCN4CCN(C(=O)CN5CCN(CC(=O)O)CCN(CC(=O)O)CCN(CC(=O)O)CC5)CC4)cc3)cc12
Resp: Yes

Req: Entry O=C(O)CN1CCN(CC(=O)O)CCN(CC(=O)N2CCN(CCNC(=O)c3ccc(-c4ccc5nccc(C(=O)NCC(=O)N6CCC[C@H]6C(=O)c6nc7ccccc7o6)c5c4)cn3)CC2)CCN(CC(=O)O)CC1 [drawing 361] : is its pIC50 (FACS) no less than 8?
Resp: No

Req: Could you verify whether the entry N#C[C@@H]1CC(F)(F)CN1C(=O)CNC(=O)c1ccnc2ccc(-c3ccc(C(=O)NCCCNC(=O)CN4CCN(CC(=O)O)CCN(CC(=O)O)CCN(CC(=O)O)CC4)nc3)cc12 shows pIC50 (FACS) of no less than 8?
Resp: Yes

More entries:
Req: Answer whether pIC50 (FACS) of N#C[C@@H]1CC(F)(F)CN1C(=O)CNC(=O)c1ccnc2ccc(-c3ccc(S(=O)(=O)CCCNC(=O)CN4CCN(CC(=O)O)CCN(CC(=O)O)CCN(CC(=O)O)CC4)cc3)cc12 is greater than or equal to 8.
Resp: Yes

Req: Entry O=C(O)CN1CCN(CC(=O)O)CCN(CC(=O)N2CCN(CCNC(=O)c3cccc(-c4ccc5nccc(C(=O)NCC(=O)N6CCC[C@H]6C(=O)c6nc7ccccc7o6)c5c4)c3)CC2)CCN(CC(=O)O)CC1 [drawing 353] : is its pIC50 (FACS) no less than 8?
Resp: Yes

Reference source: patent EP4122499A1
